Ki, Cannabinoid receptor 1 (Rattus norvegicus), per-entry values.
// units = µM; emit number, no label

CCCCCn1cc(C(=O)NC23CC4CC(C)(CC(C)(C4)C2)C3)c(=O)c2c(C)nn(C)c21 : 3.26
CCCCCn1cc(C(=O)NC23CC4CC(CC(C4)C2)C3)c(=O)n2nc(-c3ccccc3)nc12 : 0.56
CCCCn1cc(C(=O)NC2CCCCC2)c(=O)c2c(C)nn(C)c21 : 1.53
CCCCCn1cc(C(=O)NC2CCCCCC2)c(=O)c2c(C)csc21 : 0.067
CCCCCn1cc(C(=O)NC2CCCCC2)c(=O)c2c(C)noc21 : 0.187

Q: // fetch Ki; item: `CCCCCn1cc(C(=O)NC23CC4CC(CC(C4)C2)C3)c(=O)c2c(CC)nn(C)c21` ; system: Cannabinoid receptor 1 (Rattus norvegicus)
Sequence (P20272 whole entry): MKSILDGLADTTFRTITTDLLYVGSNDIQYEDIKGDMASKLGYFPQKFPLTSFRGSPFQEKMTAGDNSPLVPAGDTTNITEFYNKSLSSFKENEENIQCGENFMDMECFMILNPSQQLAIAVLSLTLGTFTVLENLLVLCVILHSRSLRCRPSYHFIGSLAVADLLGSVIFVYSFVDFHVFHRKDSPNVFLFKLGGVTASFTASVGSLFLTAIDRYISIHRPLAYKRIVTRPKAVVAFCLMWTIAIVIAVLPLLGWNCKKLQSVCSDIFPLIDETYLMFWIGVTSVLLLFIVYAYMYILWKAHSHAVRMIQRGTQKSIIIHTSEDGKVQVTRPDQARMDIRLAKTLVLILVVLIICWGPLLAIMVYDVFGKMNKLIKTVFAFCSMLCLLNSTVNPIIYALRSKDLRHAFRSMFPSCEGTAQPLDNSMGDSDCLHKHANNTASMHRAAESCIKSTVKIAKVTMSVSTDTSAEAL
Ans: 2.67

Q: // fetch Ki; item: `CCCCCn1cc(C(=O)N[C@H]2CC[C@@H](C)CC2)c(=O)c2c(C)nn(C)c21` ; system: Cannabinoid receptor 1 (Rattus norvegicus)
Ans: 0.75

Q: // fetch Ki; item: `CCCCCn1cc(C(=O)NC2CCCCC2)c(=O)c2cnn(C)c21` ; system: Cannabinoid receptor 1 (Rattus norvegicus)
Ans: 5.65

Q: // fetch Ki; item: `CCCCCn1cc(C(=O)NC23CC4CC(CC(C4)C2)C3)c(=O)c2c(C(C)(C)C)nn(C)c21` ; system: Cannabinoid receptor 1 (Rattus norvegicus)
Ans: 3.43

Q: // fetch Ki; item: `CCCCCn1cc(C(=O)NC2CCCCCC2)c(=O)c2c(C)nn(C)c21` ; system: Cannabinoid receptor 1 (Rattus norvegicus)
Ans: 1.62

###

Below: a set of entries, each annotated with reported Emax.
- assay-system: Cannabinoid receptor 2 (Homo sapiens, UniProt P34972)
- Sequence (P34972 whole entry): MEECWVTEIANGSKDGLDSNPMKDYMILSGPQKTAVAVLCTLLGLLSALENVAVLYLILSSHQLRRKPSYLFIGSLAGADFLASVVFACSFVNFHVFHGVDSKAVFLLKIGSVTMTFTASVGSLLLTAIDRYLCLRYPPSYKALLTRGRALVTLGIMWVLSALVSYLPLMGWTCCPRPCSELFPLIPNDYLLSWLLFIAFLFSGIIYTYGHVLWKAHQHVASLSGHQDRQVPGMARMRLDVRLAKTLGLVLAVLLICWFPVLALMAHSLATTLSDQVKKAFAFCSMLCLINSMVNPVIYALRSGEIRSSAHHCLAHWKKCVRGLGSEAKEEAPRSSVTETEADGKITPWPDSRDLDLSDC
- assay-method-text: Agonist activity at human CB2 receptor expressed in CHO cells assessed as forskolin-stimulated [3H]cyclic-AMP accumulation by scintillation counting analysis relative to WIN 55,212-2
- Type: functional, cell-based
// units = %; emit number, no label

Some entries whose results are on file:
CCCCCn1cc(C(=O)NC2CCCCCC2)c(=O)c2c(C)csc21 : -95
CCCCCn1cc(C(=O)N[C@H]2CC[C@@H](C)CC2)c(=O)c2c(C)nn(C)c21 : 16
CCCCCn1cc(C(=O)N[C@H]2CC[C@H](C)CC2)c(=O)c2c(C)nn(C)c21 : 14
CCCCCCn1cc(C(=O)NC2CCCCC2)c(=O)c2c(C)nn(C)c21 : 27
CCCCCn1cc(C(=O)NC2CCCCC2)c(=O)c2cnn(C)c21 : 48
CCCCCn1cc(C(=O)NC23CC4CC(CC(C4)C2)C3)c(=O)c2c(C)nn(C)c21 : 68
CCCCCn1cc(C(=O)NC23CC4CC(CC(C4)C2)C3)c(=O)n2ncnc12 : 60
CCCCCn1cc(C(=O)NC2CCCCC2)c(=O)c2c(C)nn(C)c21 : 52

Q: Give the measured Emax for `CCCCCn1cc(C(=O)NC23CC4CC(CC(C4)C2)C3)c(=O)c2cnn(C)c21`
Ans: 67

Q: Give the measured Emax for `CCCCCn1cc(C(=O)NC23CC4CC(C)(CC(C)(C4)C2)C3)c(=O)c2c(C)nn(C)c21`
Ans: 71

###

- assay-system: Cannabinoid receptor 2 (Homo sapiens)
- assay-method-text: Agonist activity at human CB2 receptor expressed in CHO cells assessed as forskolin-stimulated [3H]cyclic-AMP accumulation by scintillation counting analysis
assay-metric: EC50 (µM)
// units = µM; emit number, no label

Some entries whose results are on file:
CCCCCn1cc(C(=O)NC23CC4CC(CC(C4)C2)C3)c(=O)n2ncnc12 : 0.087
CCCCCn1cc(C(=O)NC23CC4CC(CC(C4)C2)C3)c(=O)c2c(C)nn(C)c21 : 0.049
CCCCCn1cc(C(=O)NC2CCCCC2)c(=O)c2cnn(C)c21 : 0.872

Q: Give the measured EC50 for `CCCCCn1cc(C(=O)NC2CCCCC2)c(=O)c2c(C)noc21`
Ans: 0.0143

Q: Give the measured EC50 for `CCCCCn1cc(C(=O)NC23CC4CC(CC(C4)C2)C3)c(=O)c2c(C)noc21`
Ans: 0.083

Q: Give the measured EC50 for `CCCCCn1cc(C(=O)NCC2CCCCC2)c(=O)c2c(C)nn(C)c21`
Ans: 1.56

Q: Give the measured EC50 for `CCCCCn1cc(C(=O)NC23CC4CC(C)(CC(C)(C4)C2)C3)c(=O)c2c(C)nn(C)c21`
Ans: 0.045

Q: Give the measured EC50 for `CCCCCn1cc(C(=O)NC23CC4CC(CC(C4)C2)C3)c(=O)c2c(C)csc21`
Ans: 0.031

Q: Give the measured EC50 for `CCCCCn1cc(C(=O)NC2CCCCCC2)c(=O)c2c(C)csc21`
Ans: 0.065

Q: Give the measured EC50 for `C=CCn1cc(C(=O)NC2CCCCC2)c(=O)c2c(C)nn(C)c21`
Ans: 0.587

Q: Give the measured EC50 for `CCCCCn1cc(C(=O)N[C@H]2CC[C@H](C)CC2)c(=O)c2c(C)nn(C)c21`
Ans: 0.058

Q: Give the measured EC50 for `CCCCCn1cc(C(=O)NC23CC4CC(CC(C4)C2)C3)c(=O)c2c(C(C)(C)C)nn(C)c21`
Ans: 1.76

###

Ki, UniProt P20272, per-entry values.
// units = µM; emit number, no label

Some entries whose results are on file:
CCCCCCn1cc(C(=O)NC2CCCCC2)c(=O)c2c(C)nn(C)c21 : 3.22
CCCCCn1cc(C(=O)NCC2CCCCC2)c(=O)c2c(C)nn(C)c21 : 1.04
CCCCCn1cc(C(=O)NC23CC4CC(CC(C4)C2)C3)c(=O)n2ncnc12 : 0.85
Cc1nn(C)c2c1c(=O)c(C(=O)NC1CCCCC1)cn2Cc1ccccc1 : 4.56
CCCCCn1cc(C(=O)NC23CC4CC(CC(C4)C2)C3)c(=O)c2c(C)nn(C)c21 : 0.832

Continue with the molecule presented below.
Q: // fetch Ki; item: `CCCCCn1cc(C(=O)NC23CC4CC(CC(C4)C2)C3)c(=O)c2c(C)noc21` ; system: UniProt P20272
Ans: 1.49

###

- assay-system: Cannabinoid receptor 2 (Rattus norvegicus, UniProt Q9QZN9)
- Sequence (Q9QZN9 whole entry): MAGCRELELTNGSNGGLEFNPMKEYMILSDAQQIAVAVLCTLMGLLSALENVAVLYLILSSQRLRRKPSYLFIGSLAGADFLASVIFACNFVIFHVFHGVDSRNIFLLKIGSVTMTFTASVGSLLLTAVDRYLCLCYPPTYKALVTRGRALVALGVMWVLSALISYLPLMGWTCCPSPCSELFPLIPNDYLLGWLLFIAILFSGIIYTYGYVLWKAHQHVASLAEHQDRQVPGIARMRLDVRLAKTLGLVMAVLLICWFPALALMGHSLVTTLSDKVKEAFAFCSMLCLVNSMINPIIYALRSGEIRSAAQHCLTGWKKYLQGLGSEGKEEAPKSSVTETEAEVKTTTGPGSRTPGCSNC
assay-metric: Ki (nM)
// units = nM; emit number, no label

Q: // fetch Ki; item: `CCCCCn1cc(C(=O)NC2CCCCC2)c(=O)c2c(C)nn(C)c21` ; system: Cannabinoid receptor 2 (Rattus norvegicus, UniProt Q9QZN9)
Ans: 100

Q: // fetch Ki; item: `CCCn1cc(C(=O)NC2CCCCC2)c(=O)c2c(C)nn(C)c21` ; system: Cannabinoid receptor 2 (Rattus norvegicus, UniProt Q9QZN9)
Ans: 593

Q: // fetch Ki; item: `CCCCCn1cc(C(=O)NC23CC4CC(C)(CC(C)(C4)C2)C3)c(=O)c2c(C)nn(C)c21` ; system: Cannabinoid receptor 2 (Rattus norvegicus, UniProt Q9QZN9)
Ans: 16.7

Q: // fetch Ki; item: `CCCCn1cc(C(=O)NC2CCCCC2)c(=O)c2c(C)nn(C)c21` ; system: Cannabinoid receptor 2 (Rattus norvegicus, UniProt Q9QZN9)
Ans: 145

Q: // fetch Ki; item: `CCCCCn1cc(C(=O)Nc2ccccc2)c(=O)c2c(C)nn(C)c21` ; system: Cannabinoid receptor 2 (Rattus norvegicus, UniProt Q9QZN9)
Ans: 740

###

- assay-system: Cannabinoid receptor 2 (Homo sapiens)
- assay-method-text: Displacement of [3H]CP-55,940 from human recombinant CB2 receptor expressed in CHO cell membranes after 60 mins by scintillation counting analysis
pKi: −log10 of the molar value.
Output schema: class label derived from pKi. Mapping: low bin: < 6; mid bin: ≥ 6 and < 8; high bin: ≥ 8

Record excerpt, results attached:
CCCn1cc(C(=O)NC2CCCCC2)c(=O)c2c(C)nn(C)c21 : mid bin
CCCCCn1cc(C(=O)NC23CC4CC(CC(C4)C2)C3)c(=O)c2c(C(C)(C)C)nn(C)c21 : mid bin
CCCCCn1cc(C(=O)NC23CC4CC(CC(C4)C2)C3)c(=O)n2nc(-c3ccccc3)nc12 : high bin
CCCCCn1cc(C(=O)NC2CCCCC2)c(=O)c2c(C(C)(C)C)nn(C)c21 : low bin

Q: Band for the recorded pKi of `CCCCCn1cc(C(=O)NC23CC4CC(CC(C4)C2)C3)c(=O)c2c(C)csc21` ?
Ans: high bin

Q: Band for the recorded pKi of `CCCCCn1cc(C(=O)NC2CCCCC2)c(=O)c2c(-c3ccccc3)nn(C)c21` ?
Ans: low bin

Q: Band for the recorded pKi of `CCCCCn1cc(C(=O)NC23CC4CC(CC(C4)C2)C3)c(=O)c2c(CC)nn(C)c21` ?
Ans: mid bin

Q: Band for the recorded pKi of `CCCCCn1cc(C(=O)Nc2ccc(F)cc2)c(=O)c2c(C)nn(C)c21` ?
Ans: low bin

Q: Band for the recorded pKi of `CCCCCn1cc(C(=O)NC23CC4CC(CC(C4)C2)C3)c(=O)n2ncnc12` ?
Ans: mid bin

Q: Band for the recorded pKi of `C=CCn1cc(C(=O)NC2CCCCC2)c(=O)c2c(C)nn(C)c21` ?
Ans: low bin

Q: Band for the recorded pKi of `CCCCCn1cc(C(=O)NCc2ccccc2)c(=O)c2c(C)nn(C)c21` ?
Ans: low bin

Q: Band for the recorded pKi of `CCCCCn1cc(C(=O)NC2CCCCCC2)c(=O)c2c(-c3ccc(Cl)cc3)nn(C)c21` ?
Ans: low bin

Q: Band for the recorded pKi of CCCCCn1cc(C(=O)NC(C)CCC(C)C)c(=O)c2c(C)nn(C)c21 (centres undefined) ?
Ans: mid bin
